Tested on: HCV 1a-H77 subgenomic replicon
Assay: microbe, parasite or virus in culture
Format: cell-based, HCV genotype 1a
Settings: Hepatitis C virus, stable replicon, strain 1a H77, 5% FBS, no human plasma; read-out: 1a H77 5% FBS EC50
pEC50: −log10 of the molar value.
Output rule met for pEC50 not less than 7; output rule not met otherwise.

(Q) Identify whether the reported pEC50 of the following molecule is 7 or greater: CS(=O)(=O)N(CC(N)=O)c1cc2oc(-c3ccc(F)cc3)c(-c3ncc[nH]3)c2cc1C1CC1
(A) rule not met

(Q) CS(=O)(=O)N(CCCc1n[nH]c(=O)o1)c1cc2oc(-c3ccc(F)cc3)c(-c3ncc[nH]3)c2cc1C1CC1 ?
(A) rule met

(Q) Now try CC(C)(C)[Si](C)(C)OCCCCN(c1cc2oc(-c3ccc(F)cc3)c(-c3ncc[nH]3)c2cc1C1CC1)S(C)(=O)=O .
(A) rule not met

(Q) Follow-up item: CS(=O)(=O)N(CCCN1CCOCC1)c1cc2oc(-c3ccc(F)cc3)c(-c3ncc[nH]3)c2cc1C1CC1
(A) rule met

###

Molecular target: HCV NS5B polymerase 1b BK strain (Hepatitis C virus genotype 1b, UniProt P26663)
Construct: six-histidine tag; made in house; host or cells: E. coli
Sequence (P26663 2420-2989): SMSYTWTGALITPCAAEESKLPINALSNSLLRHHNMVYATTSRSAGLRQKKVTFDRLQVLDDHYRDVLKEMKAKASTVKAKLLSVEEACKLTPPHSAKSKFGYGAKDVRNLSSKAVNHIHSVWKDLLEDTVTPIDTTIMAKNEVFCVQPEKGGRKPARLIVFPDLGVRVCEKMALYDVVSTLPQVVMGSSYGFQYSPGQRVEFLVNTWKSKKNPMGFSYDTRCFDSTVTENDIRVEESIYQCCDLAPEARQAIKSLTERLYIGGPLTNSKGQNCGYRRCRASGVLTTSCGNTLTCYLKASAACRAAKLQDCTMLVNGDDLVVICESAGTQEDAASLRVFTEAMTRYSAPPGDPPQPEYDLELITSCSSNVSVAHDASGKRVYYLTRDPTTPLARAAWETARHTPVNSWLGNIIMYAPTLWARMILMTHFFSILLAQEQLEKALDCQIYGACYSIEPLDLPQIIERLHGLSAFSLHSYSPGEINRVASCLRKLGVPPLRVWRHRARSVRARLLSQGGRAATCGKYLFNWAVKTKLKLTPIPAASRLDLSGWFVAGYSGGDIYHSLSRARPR
Assay: HCV NS5B polymerase enzymatic inhibition assay, strain 1b BK
Assay type: biochemical
Details: enzyme, strain 1b BK; read-out: HCV Polymerase Strain 1b BK IC50
MEASURED_ENDPOINT: IC50 (nM)
Number in nM, nothing else.

Consider the reported IC50 for these compounds:
{"SMILES_STRUCTURE": "CS(=O)(=O)N(CC1CCOCC1)c1cc2oc(-c3ccc(F)cc3)c(-c3ncc[nH]3)c2cc1C1CC1", "UNIT_OF_MEASUREMENT": "nM", "MEASUREMENT": 33}
{"SMILES_STRUCTURE": "CS(=O)(=O)N(Cc1cnc(-c2ccc3[nH]ccc3c2)s1)c1ccc2c(-c3ncc[nH]3)c(-c3ccccc3)oc2c1", "UNIT_OF_MEASUREMENT": "nM", "MEASUREMENT": 10}
{"SMILES_STRUCTURE": "CS(=O)(=O)NCCCN(c1cc2oc(-c3ccc(F)cc3)c(-c3ncc[nH]3)c2cc1C1CC1)S(C)(=O)=O", "UNIT_OF_MEASUREMENT": "nM", "MEASUREMENT": 13}
{"SMILES_STRUCTURE": "CS(=O)(=O)N(CCCCCO)c1cc2oc(-c3ccc(F)cc3)c(-c3ncc[nH]3)c2cc1C1CC1", "UNIT_OF_MEASUREMENT": "nM", "MEASUREMENT": 9}
{"SMILES_STRUCTURE": "CS(=O)(=O)N(CCCc1n[nH]c(=O)o1)c1cc2oc(-c3ccc(F)cc3)c(-c3ncc[nH]3)c2cc1C1CC1", "UNIT_OF_MEASUREMENT": "nM", "MEASUREMENT": 25}

(Q) Query: IC50; subject: CS(=O)(=O)N(CCCF)c1cc2oc(-c3ccc(F)cc3)c(-c3ncc[nH]3)c2cc1C1CC1
(A) 18

(Q) Another compound to check: COc1ccc(CN(c2cc3oc(-c4ccc(F)cc4)c(-c4ncc(C)[nH]4)c3cc2C2CC2)S(C)(=O)=O)cc1
(A) 55

(Q) CC(C)CCN(c1cc2oc(-c3ccc(F)cc3)c(C3=NOCN3)c2cc1C1CC1)S(C)(=O)=O ?
(A) 27

(Q) Ok, now CS(=O)(=O)N(Cc1cccc(C(F)(F)F)c1)c1ccc2c(-c3ncc[nH]3)c(-c3ccccc3)oc2c1
(A) 80.1

(Q) Same thing, different compound: CS(=O)(=O)N(CCCS(N)(=O)=O)c1cc2oc(-c3ccc(F)cc3)c(C3=NOCCN3)c2cc1C1CC1
(A) 29

(Q) Check CN(C)CCCN(c1cc2oc(-c3ccc(F)cc3)c(-c3ncc[nH]3)c2cc1C1CC1)S(C)(=O)=O too.
(A) 56

(Q) And what about the compound COc1ccc(CN(c2cc3oc(-c4ccc(F)cc4)c(-c4ncc[nH]4)c3cc2OC(C)C)S(C)(=O)=O)cc1 ?
(A) 338

(Q) // next record CS(=O)(=O)N(CCCc1ccccc1)c1cc2oc(-c3ccc(F)cc3)c(-c3ncc[nH]3)c2cc1C1CC1
(A) 16

(Q) Try this compound next: CS(=O)(=O)N(CCCN1CCS(=O)(=O)CC1)c1cc2oc(-c3ccc(F)cc3)c(C3=NOCCN3)c2cc1C1CC1
(A) 43

(Q) Also CS(=O)(=O)Nc1cc2oc(-c3ccc(F)cc3)c(-c3ncc[nH]3)c2cc1C1CC1 ?
(A) 87

(Q) Now try CS(=O)(=O)N(CCCc1nsc(=O)[nH]1)c1cc2oc(-c3ccc(F)cc3)c(-c3ncc[nH]3)c2cc1C1CC1 .
(A) 65

(Q) And CCN(CC)CCCN(c1cc2oc(-c3ccc(F)cc3)c(C3=NOCCN3)c2cc1C1CC1)S(C)(=O)=O ?
(A) 171

(Q) Continue with CSCCN(c1cc2oc(-c3ccc(F)cc3)c(-c3ncc[nH]3)c2cc1C1CC1)S(C)(=O)=O
(A) 13

(Q) Follow-up item: CS(=O)(=O)Nc1cc2oc(-c3ccc(F)cc3)c(-c3nc(Cl)c[nH]3)c2cc1C1CC1
(A) 906

(Q) Same question for CS(=O)(=O)N(CCCC(=O)O)c1cc2oc(-c3ccc(F)cc3)c(C3=NOCCN3)c2cc1C1CC1 please.
(A) 28

###

Items are presented alongside their recorded IC50.
Target: HCV NS5B polymerase 1a-H77-C316Y (Hepatitis C virus genotype 1a, UniProt P27958, C2736Y)
Construct: six-histidine tag
Sequence (P27958 2421-2990 C2736Y): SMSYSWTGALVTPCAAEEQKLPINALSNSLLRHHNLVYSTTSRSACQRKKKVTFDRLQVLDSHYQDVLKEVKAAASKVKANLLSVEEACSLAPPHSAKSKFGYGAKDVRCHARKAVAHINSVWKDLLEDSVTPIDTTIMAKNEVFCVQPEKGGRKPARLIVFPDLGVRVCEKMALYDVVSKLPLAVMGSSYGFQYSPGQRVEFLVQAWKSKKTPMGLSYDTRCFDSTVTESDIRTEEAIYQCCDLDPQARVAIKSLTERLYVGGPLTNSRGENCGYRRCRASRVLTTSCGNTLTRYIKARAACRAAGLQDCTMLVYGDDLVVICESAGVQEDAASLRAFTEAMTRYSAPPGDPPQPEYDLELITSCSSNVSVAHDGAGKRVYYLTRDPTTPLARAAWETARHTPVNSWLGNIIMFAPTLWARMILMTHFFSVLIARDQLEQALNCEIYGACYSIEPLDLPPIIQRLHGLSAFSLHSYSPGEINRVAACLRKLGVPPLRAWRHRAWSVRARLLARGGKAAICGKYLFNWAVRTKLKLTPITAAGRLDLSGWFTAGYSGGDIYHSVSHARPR
Experiment: biochemical
Lab book: enter the figure in nM, no units written.

(Q) What value of measured IC50 is listed for CS(=O)(=O)NCCCN(c1cc2oc(-c3ccc(F)cc3)c(-c3ncc[nH]3)c2cc1C1CC1)S(C)(=O)=O ?
(A) 85

(Q) Continue with CC(C)(O)C(=O)CCN(c1cc2oc(-c3ccc(F)cc3)c(-c3ncc[nH]3)c2cc1C1CC1)S(C)(=O)=O
(A) 101

(Q) Request: COc1ccc(CN(c2cc3oc(-c4ccc(F)cc4)c(C4=NOC(C)N4)c3cc2C2CC2)S(C)(=O)=O)cc1 (stereo not drawn)
(A) 102

###

Test system: HCV 1b-BB7 subgenomic replicon
Experiment: microbe, parasite or virus in culture
Assay type: cell-based, HCV genotype 1b
Details: Hepatitis C virus, stable replicon, strain 1b BB7, 5% FBS; read-out: 1b BB7 5% FBS EC50
pEC50: recorded values
Quick note: pEC50 means taking -log10 of the concentration in moles per liter.

Some entries whose results are on file:
{"COMPOUND": "CC(C)CCN(c1cn2nc(-c3ccc(F)cc3)c(-c3ncc[nH]3)c2cc1C1CC1)S(C)(=O)=O", "EXPERIMENTAL_SYSTEM": "HCV 1b-BB7 subgenomic replicon", "MEASUREMENT": 7.24}
{"COMPOUND": "CNC(=O)CCCN(c1cc2oc(-c3ccc(F)cc3)c(-c3ncc[nH]3)c2cc1C1CC1)S(C)(=O)=O", "EXPERIMENTAL_SYSTEM": "HCV 1b-BB7 subgenomic replicon", "MEASUREMENT": 7.96}
{"COMPOUND": "CS(=O)(=O)N(CCCc1noc(=O)[nH]1)c1cc2oc(-c3ccc(F)cc3)c(C3=NOCCN3)c2cc1C1CC1", "EXPERIMENTAL_SYSTEM": "HCV 1b-BB7 subgenomic replicon", "MEASUREMENT": 6.51}
{"COMPOUND": "CS(=O)(=O)N(Cc1cnc(-c2ccc3nc[nH]c3c2)s1)c1ccc2c(-c3ncc[nH]3)c(-c3ccccc3)oc2c1", "EXPERIMENTAL_SYSTEM": "HCV 1b-BB7 subgenomic replicon", "MEASUREMENT": 8.30}

(Q) Record request: pEC50 value, item CS(=O)(=O)N(CCN1CCOCC1)c1cc2oc(-c3ccc(F)cc3)c(-c3ncc[nH]3)c2cc1C1CC1
(A) 7.92

(Q) Now the same for CC(C)(C)Oc1ncc(-c2ncc(CN(c3ccc4c(-c5ncc[nH]5)c(-c5ccccc5)oc4c3)S(C)(=O)=O)s2)c(OC(C)(C)C)n1
(A) 7.12

(Q) Repeat with COc1ccc(CN(c2cc3oc(-c4ccc(F)cc4)c(C4=NOC(C)N4)c3cc2C2CC2)S(C)(=O)=O)cc1 (stereo not drawn)
(A) 7.52

###

Tested on: HCV 1a-H77 subgenomic replicon
Experiment: microbe, parasite or virus in culture
Format: cell-based, HCV genotype 1a
Conditions: Hepatitis C virus, stable replicon, strain 1a H77, 5% FBS; read-out: 1a H77 5% FBS EC50
# EC50 annotations
Form entry: value (µM) — number only.

Here is how some compounds turned out for EC50.
{"COMPOUND": "CCCCCN(c1cc2oc(-c3ccc(F)cc3)c(-c3ncc[nH]3)c2cc1C1CC1)S(C)(=O)=O", "EC50 / µM": 0.0418}
{"COMPOUND": "CS(=O)(=O)N(CCN1CCCC1)c1cc2oc(-c3ccc(F)cc3)c(-c3ncc[nH]3)c2cc1C1CC1", "EC50 / µM": 0.205}
{"COMPOUND": "CS(=O)(=O)N(Cc1cc(O)no1)c1cc2oc(-c3ccc(F)cc3)c(-c3ncc[nH]3)c2cc1C1CC1", "EC50 / µM": 0.263}
{"COMPOUND": "COc1ccc(-c2nn3ccc(-c4cc(C(=O)NC5(c6ccccc6)CC5)ccc4C)cc3c2C2=NOCCN2)cc1", "EC50 / µM": 0.0332}
{"COMPOUND": "CC(C)CCN(c1cc2oc(-c3ccc(F)cc3)c(C3=NOCC(=O)N3)c2cc1C1CC1)S(C)(=O)=O", "EC50 / µM": 0.248}
{"COMPOUND": "CS(=O)(=O)N(CCCC(=O)N1CCOCC1)c1cc2oc(-c3ccc(F)cc3)c(-c3ncc[nH]3)c2cc1C1CC1", "EC50 / µM": 0.0446}

(Q) Quick check: EC50 of CC1NC(c2c(-c3ccc(F)cc3)oc3cc(N(CCCCO)S(C)(=O)=O)c(C4CC4)cc23)=NO1 (stereo not drawn) ?
(A) 0.008

(Q) Try the compound CS(=O)(=O)N(CCCN)c1cc2oc(-c3ccc(F)cc3)c(-c3ncc[nH]3)c2cc1C1CC1
(A) 0.262

(Q) Cool, now CS(=O)(=O)N(CCCCO)c1cc2oc(-c3ccc(F)cc3)c(C3=NOCCN3)c2cc1C1CC1
(A) 0.0063

Reference source: patent US20160355530A1
